Value source: patent US20260356820A1

Molecular target: human Polq polymerase domain (Homo sapiens, UniProt O75417)
Sequence (O75417 1792-2590): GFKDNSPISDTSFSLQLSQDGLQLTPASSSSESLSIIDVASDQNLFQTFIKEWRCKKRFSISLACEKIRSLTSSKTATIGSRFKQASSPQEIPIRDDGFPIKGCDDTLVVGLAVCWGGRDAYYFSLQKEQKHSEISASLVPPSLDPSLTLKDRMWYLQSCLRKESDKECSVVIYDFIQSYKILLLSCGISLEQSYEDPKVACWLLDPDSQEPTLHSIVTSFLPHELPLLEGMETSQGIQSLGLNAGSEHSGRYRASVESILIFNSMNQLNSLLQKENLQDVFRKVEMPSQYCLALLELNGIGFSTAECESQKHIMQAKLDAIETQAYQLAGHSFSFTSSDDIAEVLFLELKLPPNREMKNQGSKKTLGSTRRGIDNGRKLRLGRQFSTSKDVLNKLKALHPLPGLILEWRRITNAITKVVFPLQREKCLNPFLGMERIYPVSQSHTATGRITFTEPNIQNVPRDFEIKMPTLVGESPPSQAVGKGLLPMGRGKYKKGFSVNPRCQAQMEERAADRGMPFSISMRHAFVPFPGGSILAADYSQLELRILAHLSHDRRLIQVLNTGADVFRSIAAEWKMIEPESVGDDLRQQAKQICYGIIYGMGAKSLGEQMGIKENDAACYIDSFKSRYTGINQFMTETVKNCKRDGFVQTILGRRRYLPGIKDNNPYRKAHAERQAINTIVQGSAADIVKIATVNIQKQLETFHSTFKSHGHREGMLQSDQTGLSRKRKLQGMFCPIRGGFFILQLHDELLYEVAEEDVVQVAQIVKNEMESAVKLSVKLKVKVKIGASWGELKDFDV
Test: Cy5 fluorescence assay of Polq polymerase domain inhibition
Type: biochemical
Settings: 5 nM Polq polymerase domain (residues 1792-2590), 60 nM primer-template, 50 uM dNTPs, 37 °C, 18 min; read-out: IC50 (nM) Polq
Reported IC50 values for a set of compounds
Expressed in nM, but write only the number.

* CNCC(O)CN1CCN(c2cc(C(F)(F)F)cc(C(F)(F)F)c2OC(=O)N(C)c2ccc(F)cc2)C1=O (stereo not drawn) | 5.1
* [2H]C([2H])([2H])N(C(=O)Oc1c(N2CCN(C[C@H](O)CN(C)C)C2=O)cc(C(F)(F)F)cc1C(F)(F)F)c1ccc(F)cc1 | 5.1

API: the following record is the query input.
Recorded IC50 for [2H]C([2H])([2H])N(C(=O)Oc1c(N2CCN(CC(O)CN(C)C)C2=O)cc(C(F)(F)F)cc1C(F)(F)F)c1ccc(F)cc1 (stereo not drawn) with human Polq polymerase domain (Homo sapiens, UniProt O75417), please?
5.5
